target.or.test.system: human GLP-1 receptor (human, UniProt P43220 24-463)
assay.name: cell-based or functional assay
Rule: measured cAMP EC50 below 0.2 nM gets 1; anything equal to or greater than 0.2 nM gets 0.

// known answers, use as guide
{"binder": "IP278 (Fc fusion) YSEGTFTSDYSKLLEEEAVRLFIEWLVKGPPSSGAPPPSGGGGGSGGGGSGGGGSGGGGSATHTCPPC", "label.class": 1}
{"binder": "IP292 (Fc fusion) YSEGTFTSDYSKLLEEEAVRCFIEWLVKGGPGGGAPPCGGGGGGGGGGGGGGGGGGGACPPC", "label.class": 0}
{"binder": "IP228 (Fc fusion) YSEGTFTSDYSKLLEEEAVRLFIEWLKNGGAAAGGSGSTASSGSGSATGGGGAATHTCPPCPAPEF", "label.class": 1}
{"binder": "IP274 (Fc fusion) YSEGTFTSDYSKLLEKEAVRLFIEWLLKGPGGGGGSGGGGSGGGGSGGGGSATHTCPPC", "label.class": 0}
{"binder": "IP127 (Fc fusion) YSEGTFTSDVSSYLEEEAVREFIEWLLAGGAAAGGSGSTASSGSGSATGGGGAATHTCPPCPAPEF", "label.class": 1}
{"binder": "IP085 (Fc fusion) YSEGTFTSDYSKLLEEEAVRLFIEWLLAGAPPGGSGSTASSGSGSATGGGGAATHTCPPCPAPEF", "label.class": 1}
{"binder": "IP261 (Fc fusion) YSEGTFTSDYSKLLEEEAVRLFVEWLVKGPGGGGGSGGGGSGGGGSGGGGSATHTCPPCPAPEF", "label.class": 1}
{"binder": "IP295 (Fc fusion) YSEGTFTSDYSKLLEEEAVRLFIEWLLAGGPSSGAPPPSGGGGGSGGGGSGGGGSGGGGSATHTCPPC", "label.class": 1}

Is 0.2 nM strictly greater than the binder's reported cAMP EC50? binder: IP296 (Fc fusion) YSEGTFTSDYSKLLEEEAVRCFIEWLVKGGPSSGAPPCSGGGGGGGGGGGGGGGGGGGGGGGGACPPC 0

Is 0.2 nM strictly greater than the binder's reported cAMP EC50? binder: IP262 (Fc fusion) YSEGTFTSDYSKLLEEEAVRLFIEWLLKGPGGGGGSGGGGSGGGGSGGGGSATHTCPPCPAPEF 0

Is 0.2 nM strictly greater than the binder's reported cAMP EC50? binder: IP124 (Fc fusion) YSEGTFTSDYSKLLEEEAVRLFIEWLVKGAAAGGSGSTASSGSGSATGGGGAATHTCPPCPAPEF 1
